Type: physicochemical
Conditions: 60° C., 1 w
Procedure: For each salt, approximately 5 mg compound was added into an 8 mL glass vial with a multi-hole aluminum foil cap, and kept at 60° C., 40° C./75% RH for 1 week. […] Appearance by visual observation were recorded followed by purity assessment and XPRD data collection on the residual solids.
measure.name: Final purity
The answer should be a number; do not append a unit.

# molecule COC[C@@]1(O)CC[C@@]2(C)[C@@H](CC[C@@H]3[C@@H]2CC[C@]2(C)[C@@H](C(=O)Cn4ccnc4)CC[C@@H]32)C1.O=C(O)CC(=O)O [Malonate (Form A)] ; its Final purity = 97.0

# molecule COC[C@@]1(O)CC[C@@]2(C)[C@@H](CC[C@@H]3[C@@H]2CC[C@]2(C)[C@@H](C(=O)Cn4ccnc4)CC[C@@H]32)C1.O=C1O[C@H]([C@@H](O)CO)C(O)=C1O [Ascorbate (Form A)] ; its Final purity = 95.7

# molecule CCS(=O)(=O)O.COCC1(O)CCC2(C)C(CCC3C2CCC2(C)C(C(=O)Cn4ccnc4)CCC32)C1 (stereo not drawn) [Ethanesulfonate (Form A)] ; its Final purity = 98.2

# molecule COC[C@@]1(O)CC[C@@]2(C)[C@@H](CC[C@@H]3[C@@H]2CC[C@]2(C)[C@@H](C(=O)Cn4ccnc4)CC[C@@H]32)C1.Cl [Hydrochloride (Form A)] ; its Final purity = 99.5

# molecule COCC1(O)CCC2(C)C(CCC3C2CCC2(C)C(C(=O)Cn4ccnc4)CCC32)C1.Cl (stereo not drawn) [Hydrochloride (Form C)] ; its Final purity = 98.6

# molecule COCC1(O)CCC2(C)C(CCC3C2CCC2(C)C(C(=O)Cn4ccnc4)CCC32)C1.O=CC(O)C(O)C(O)C(O)C(=O)O (stereo not drawn) [Glucuronate (Form A)] ; its Final purity = 96.7

# molecule COCC1(O)CCC2(C)C(CCC3C2CCC2(C)C(C(=O)Cn4ccnc4)CCC32)C1.O=C(O)CC(O)C(=O)O [L-Malate (Form A)] ; its Final purity = 99.6

# molecule COC[C@@]1(O)CC[C@@]2(C)[C@@H](CC[C@@H]3[C@@H]2CC[C@]2(C)[C@@H](C(=O)Cn4ccnc4)CC[C@@H]32)C1.O=S(=O)(O)c1ccccc1 [Besylate (Form A)] ; its Final purity = 98.3

# molecule COCC1(O)CCC2(C)C(CCC3C2CCC2(C)C(C(=O)Cn4ccnc4)CCC32)C1.O=C(O)C(O)C(O)C(=O)O (stereo not drawn) [L(+)-Tartrate (Form A)] ; its Final purity = 99.3

# molecule COCC1(O)CCC2(C)C(CCC3C2CCC2(C)C(C(=O)Cn4ccnc4)CCC32)C1.CS(=O)(=O)O (stereo not drawn) [Mesylate (Form A)] ; its Final purity = 99.4

# molecule COCC1(O)CCC2(C)C(CCC3C2CCC2(C)C(C(=O)Cn4ccnc4)CCC32)C1.O=S(=O)(O)CCO (stereo not drawn) [Isethionate (Form A)] ; its Final purity = 98.7

# molecule COC[C@@]1(O)CC[C@@]2(C)[C@@H](CC[C@@H]3[C@@H]2CC[C@]2(C)[C@@H](C(=O)Cn4ccnc4)CC[C@@H]32)C1.O=S(=O)(O)O [Sulfate (Form A)] ; its Final purity = 96.2
